Overview of reported pKi across a group of compounds:
- ASSAYED_TARGET: human ODC (Homo sapiens)
- Sequence (P11926 whole entry): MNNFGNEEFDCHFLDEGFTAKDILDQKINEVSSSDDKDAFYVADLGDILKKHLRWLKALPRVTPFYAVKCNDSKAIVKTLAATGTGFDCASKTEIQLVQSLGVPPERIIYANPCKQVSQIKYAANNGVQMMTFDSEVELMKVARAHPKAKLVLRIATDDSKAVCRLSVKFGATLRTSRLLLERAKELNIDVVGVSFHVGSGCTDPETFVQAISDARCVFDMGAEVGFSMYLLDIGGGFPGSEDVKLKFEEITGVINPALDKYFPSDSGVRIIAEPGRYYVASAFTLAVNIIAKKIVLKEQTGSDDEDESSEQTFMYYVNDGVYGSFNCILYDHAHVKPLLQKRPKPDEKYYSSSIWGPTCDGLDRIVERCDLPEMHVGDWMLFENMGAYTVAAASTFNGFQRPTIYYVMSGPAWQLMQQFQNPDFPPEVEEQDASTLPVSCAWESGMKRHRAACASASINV
In textbook form, pKi equals minus log to base ten of the concentration in mol/L.

[
  {
    "COMPOUND": "O=c1cc(-c2ccccc2)oc2c(O)c(O)ccc12 [7,8-Dihydroxyflavone]",
    "MEASUREMENT_KIND": "pKi",
    "ENDPOINT_RESULT": 5.85
  }
]

Exam item: Form field - read-out: pKi; system: human ODC (Homo sapiens); submitted item: O=c1cc(-c2ccccc2)oc2cc(O)c(O)c(O)c12 [Baicalein, 5,6,7-trihydroxyflavone];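 further: His-tagged human ODC expressed in Escherichia coli, activity followed as decarboxylation coupled via PEP carboxylation and malate formation to NADH analog oxidation, absorbance drop at 405 nm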
Marked response: 6.19
